# test.target: Integrin alpha-V/beta-1 (Homo sapiens, UniProt P05556+P06756)
# Sequence (P05556 21-798 limits assumed): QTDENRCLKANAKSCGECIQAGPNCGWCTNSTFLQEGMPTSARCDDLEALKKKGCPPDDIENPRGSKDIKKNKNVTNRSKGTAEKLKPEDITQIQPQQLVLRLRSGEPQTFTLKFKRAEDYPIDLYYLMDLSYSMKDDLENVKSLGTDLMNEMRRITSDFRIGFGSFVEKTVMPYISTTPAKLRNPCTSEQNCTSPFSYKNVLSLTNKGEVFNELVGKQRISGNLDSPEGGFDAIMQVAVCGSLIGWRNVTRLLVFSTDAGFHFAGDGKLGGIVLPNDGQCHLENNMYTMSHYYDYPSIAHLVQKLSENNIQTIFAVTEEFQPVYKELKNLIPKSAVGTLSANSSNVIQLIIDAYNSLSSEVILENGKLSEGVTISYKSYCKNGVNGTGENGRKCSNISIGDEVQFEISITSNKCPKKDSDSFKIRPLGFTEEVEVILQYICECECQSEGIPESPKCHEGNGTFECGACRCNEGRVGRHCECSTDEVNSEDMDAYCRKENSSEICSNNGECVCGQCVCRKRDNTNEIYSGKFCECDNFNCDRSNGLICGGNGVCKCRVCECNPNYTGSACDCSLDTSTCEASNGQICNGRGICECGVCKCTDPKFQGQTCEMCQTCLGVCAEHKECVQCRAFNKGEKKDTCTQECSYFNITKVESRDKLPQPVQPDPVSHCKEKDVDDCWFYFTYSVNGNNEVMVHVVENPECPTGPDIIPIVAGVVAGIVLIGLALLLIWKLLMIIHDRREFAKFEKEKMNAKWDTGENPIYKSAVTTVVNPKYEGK
# Sequence (P06756 31-889 limits assumed): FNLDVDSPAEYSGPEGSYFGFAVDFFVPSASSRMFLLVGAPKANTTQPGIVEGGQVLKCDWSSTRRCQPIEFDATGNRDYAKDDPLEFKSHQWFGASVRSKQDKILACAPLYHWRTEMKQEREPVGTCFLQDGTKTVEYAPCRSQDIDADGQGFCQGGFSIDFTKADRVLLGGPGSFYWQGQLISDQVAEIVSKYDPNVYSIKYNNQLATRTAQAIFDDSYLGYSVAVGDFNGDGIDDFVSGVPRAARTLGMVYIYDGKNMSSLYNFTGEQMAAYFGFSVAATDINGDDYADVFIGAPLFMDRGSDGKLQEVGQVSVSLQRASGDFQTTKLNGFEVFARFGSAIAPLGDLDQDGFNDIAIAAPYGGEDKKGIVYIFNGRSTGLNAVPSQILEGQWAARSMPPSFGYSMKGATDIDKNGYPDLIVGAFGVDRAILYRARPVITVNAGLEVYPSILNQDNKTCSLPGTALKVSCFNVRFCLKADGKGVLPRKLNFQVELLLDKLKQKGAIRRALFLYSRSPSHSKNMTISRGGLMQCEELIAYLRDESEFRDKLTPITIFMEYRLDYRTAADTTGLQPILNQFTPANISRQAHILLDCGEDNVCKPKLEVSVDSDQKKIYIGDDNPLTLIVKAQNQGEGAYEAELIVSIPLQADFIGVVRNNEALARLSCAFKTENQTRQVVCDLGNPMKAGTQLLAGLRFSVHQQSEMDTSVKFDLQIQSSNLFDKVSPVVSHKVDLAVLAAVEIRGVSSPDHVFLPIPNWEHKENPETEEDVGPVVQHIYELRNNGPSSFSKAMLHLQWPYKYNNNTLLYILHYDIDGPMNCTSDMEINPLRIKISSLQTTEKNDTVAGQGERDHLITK
# Sequence (P06756 891-1048 limits assumed): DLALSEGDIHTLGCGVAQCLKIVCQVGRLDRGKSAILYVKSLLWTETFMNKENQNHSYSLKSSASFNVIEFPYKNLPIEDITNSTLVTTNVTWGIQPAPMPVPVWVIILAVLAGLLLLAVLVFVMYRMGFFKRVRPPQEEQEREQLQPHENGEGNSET
# assay.name: Inhibition of integrin alphaVbeta1 (unknown origin)-mediated CHO cell adhesion to fibronectin preincubated for 15 to 30 mins followed by 60 min incubation for adhesion by crystal violet staining based cell adhesion assay
# condition.set: read-out: IC50
pIC50: −log10 of the molar value.
endpoint.name: pIC50

Solved cases below.
structure.as.smiles	test.target	endpoint.name	value
N=C(N)NCCCCC(=O)Nc1ccc(C[C@H](NC(=O)[C@@H]2C=CCN2S(=O)(=O)c2ccccc2)C(=O)O)cc1	Integrin alpha-V/beta-1 (Homo sapiens, UniProt P05556+P06756)	pIC50	6.10
N=C(N)NCCCCC(=O)Nc1ccc(C[C@H](NC(=O)[C@@H]2C[C@@H](F)CN2S(=O)(=O)c2ccccc2)C(=O)O)cc1	Integrin alpha-V/beta-1 (Homo sapiens, UniProt P05556+P06756)	pIC50	9.30
Cc1ccc(S(=O)(=O)N2CCC[C@H]2C(=O)N[C@@H](Cc2ccc(NC(=O)CCCNC(=N)N)cc2)C(=O)O)cc1	Integrin alpha-V/beta-1 (Homo sapiens, UniProt P05556+P06756)	pIC50	6.20
O=C(CCCCNc1ccccn1)Nc1ccc(C[C@H](NC(=O)[C@@H]2CCCN2S(=O)(=O)c2ccccc2)C(=O)O)cc1	Integrin alpha-V/beta-1 (Homo sapiens, UniProt P05556+P06756)	pIC50	8.70
N=C(N)Nc1ccc(CC(=O)Nc2ccc(C[C@H](NC(=O)[C@@H]3CCCN3S(=O)(=O)c3ccccc3)C(=O)O)cc2)cc1	Integrin alpha-V/beta-1 (Homo sapiens, UniProt P05556+P06756)	pIC50	7.30
Cc1cccc(NCCCC(=O)Nc2ccc(C[C@H](NC(=O)[C@@H]3CCCN3S(=O)(=O)c3ccccc3)C(=O)O)cc2)n1	Integrin alpha-V/beta-1 (Homo sapiens, UniProt P05556+P06756)	pIC50	6.70
N=C(N)NCCCCC(=O)Nc1ccc(C[C@H](NC(=O)[C@@H]2C[C@H](F)CN2S(=O)(=O)c2ccccc2)C(=O)O)cc1	Integrin alpha-V/beta-1 (Homo sapiens, UniProt P05556+P06756)	pIC50	9.30
N=C(N)NCCCCC(=O)Nc1ccc(C[C@H](NC(=O)[C@@H]2CCCN2S(=O)(=O)c2ccccc2[N+](=O)[O-])C(=O)O)cc1	Integrin alpha-V/beta-1 (Homo sapiens, UniProt P05556+P06756)	pIC50	6.20
O=C(CCCNc1ccccn1)Nc1ccc(C[C@H](NC(=O)[C@@H]2CCCN2S(=O)(=O)c2ccccc2)C(=O)O)cc1	Integrin alpha-V/beta-1 (Homo sapiens, UniProt P05556+P06756)	pIC50	9.70

a = O=C(CCCNC1=NCCN1)Nc1ccc(C[C@H](NC(=O)[C@@H]2CCCN2S(=O)(=O)c2ccccc2)C(=O)O)cc1
b = N=C(N)NCCCC(=O)Nc1ccc(C[C@H](NC(=O)[C@@H]2CCCCN2S(=O)(=O)c2ccccc2)C(=O)O)cc1
c = N=C(N)N[C@H]1CC[C@@H](C(=O)Nc2ccc(C[C@H](NC(=O)[C@@H]3CCCN3S(=O)(=O)c3ccccc3)C(=O)O)cc2)CC1
d = N=C(N)Nc1cccc(C(=O)Nc2ccc(C[C@H](NC(=O)[C@@H]3CCCN3S(=O)(=O)c3ccccc3)C(=O)O)cc2)c1
e = N=C(N)Nc1ccc(C(=O)Nc2ccc(C[C@H](NC(=O)[C@@H]3CCCN3S(=O)(=O)c3ccccc3)C(=O)O)cc2)cc1
**Q:** Sort by pIC50, descending. Response field: labels, in requested order.
**A:** d, a, b, c, e
